Parameter melting point: see the listing below.

Example cases with answers are listed next.
1. NS(=O)(=O)c1ccc(-n2cnc3c(-c4ccc(C(F)(F)F)cc4F)ncnc32)cc1 | 243.8 to 245 °C
2. O=c1[nH]c2c(-c3ccc(C(F)(F)F)cc3F)ncnc2n1-c1ccc(O)cc1 | 276.4 to 277.9 °C
3. COc1ccc(-n2nnc3c(-c4ccc(C(F)(F)F)cc4F)ncnc32)cc1 | 175.4 to 176.8 °C

Q: For the molecule Oc1ccc(-n2cnc3c(-c4ccc(C(F)(F)F)cc4F)ncnc32)cc1 , what melting point is on record?
Ans: 205.2 to 206.4 °C

Q: Try this molecule too: COc1ccc(-n2c(=O)[nH]c3c(-c4ccc(C(F)(F)F)cc4F)ncnc32)cc1
Ans: 295.9 to 297.2 °C

Q: Then this molecule: COc1ccc(-n2cnc3c(-c4ccc(C(F)(F)F)cc4F)ncnc32)cc1
Ans: 181.4 to 182.8 °C

Q: For Oc1ccc(-n2nnc3c(-c4ccc(C(F)(F)F)cc4F)ncnc32)cc1 then?
Ans: 210.2 to 211.8 °C

----------
Biological target: wild-type nAChR α7 receptors (Homo sapiens, UniProt P36544)
Sequence (P36544 23-502): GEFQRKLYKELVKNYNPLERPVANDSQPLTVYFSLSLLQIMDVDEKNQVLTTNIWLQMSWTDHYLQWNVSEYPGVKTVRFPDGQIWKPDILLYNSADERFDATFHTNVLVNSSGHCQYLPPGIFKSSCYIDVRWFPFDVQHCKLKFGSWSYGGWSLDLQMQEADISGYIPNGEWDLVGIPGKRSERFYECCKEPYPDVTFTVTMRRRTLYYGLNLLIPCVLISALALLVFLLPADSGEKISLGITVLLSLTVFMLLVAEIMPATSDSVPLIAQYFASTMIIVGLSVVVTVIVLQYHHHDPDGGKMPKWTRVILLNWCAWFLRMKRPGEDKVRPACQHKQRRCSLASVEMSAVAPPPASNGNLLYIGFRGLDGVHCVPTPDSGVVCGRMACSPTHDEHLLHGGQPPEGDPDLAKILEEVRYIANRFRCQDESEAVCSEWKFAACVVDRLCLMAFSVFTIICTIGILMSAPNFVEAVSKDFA
Test: Positive modulation of wild-type nAChR α7 receptors expressed in Xenopus laevis oocytes, two-electrode voltage clamp
Conditions: positive modulation of current induced by 100 μM acetylcholine; oocytes clamped at −60 mV; test compound 0.01-31.6 μM applied 30 s before and during acetylcholine
Description: In this example the positive modulation of wild-type nAChR α7 receptors by the compounds of the invention was determined using nAChR α7 receptors heterologously expressed in Xenopus laevis oocytes. The electrical current through the nAChR α7 channel was measured using conventional two-electrode voltage clamp and nAChR α7 currents were activated by applying pulses of agonist-containing solution onto the nAChR α7 expressing oocyte. […]
metric-name: log10(EC50) (log10 of the value in µM)
Would you kindly interpret these values as log10 of EC50 expressed in µM?

Worked examples, 5 compounds total:
1. COc1ccc(-n2c(=O)[nH]c3c(-c4ccc(C(F)(F)F)cc4F)ncnc32)cc1 | 0.51
2. COc1ccc(-n2cnc3c(-c4ccc(C(F)(F)F)cc4F)ncnc32)cc1 | 0.08
3. NS(=O)(=O)c1ccc(-n2cnc3c(-c4ccc(C(F)(F)F)cc4F)ncnc32)cc1 | 0.98
4. Oc1ccc(-n2cnc3c(-c4ccc(C(F)(F)F)cc4F)ncnc32)cc1 | 0.76
5. Oc1ccc(-n2nnc3c(-c4ccc(C(F)(F)F)cc4F)ncnc32)cc1 | 0.77

Next compound, log10(EC50) to be filled in.
Q: I have this compound here, O=c1[nH]c2c(-c3ccc(C(F)(F)F)cc3F)ncnc2n1-c1ccc(O)cc1 , and I need its recorded log10(EC50).
Ans: 1.52
